system-tested: sodium ion channel (Nav1.7) (Homo sapiens, UniProt Q15858)
Sequence (Q15858 whole entry): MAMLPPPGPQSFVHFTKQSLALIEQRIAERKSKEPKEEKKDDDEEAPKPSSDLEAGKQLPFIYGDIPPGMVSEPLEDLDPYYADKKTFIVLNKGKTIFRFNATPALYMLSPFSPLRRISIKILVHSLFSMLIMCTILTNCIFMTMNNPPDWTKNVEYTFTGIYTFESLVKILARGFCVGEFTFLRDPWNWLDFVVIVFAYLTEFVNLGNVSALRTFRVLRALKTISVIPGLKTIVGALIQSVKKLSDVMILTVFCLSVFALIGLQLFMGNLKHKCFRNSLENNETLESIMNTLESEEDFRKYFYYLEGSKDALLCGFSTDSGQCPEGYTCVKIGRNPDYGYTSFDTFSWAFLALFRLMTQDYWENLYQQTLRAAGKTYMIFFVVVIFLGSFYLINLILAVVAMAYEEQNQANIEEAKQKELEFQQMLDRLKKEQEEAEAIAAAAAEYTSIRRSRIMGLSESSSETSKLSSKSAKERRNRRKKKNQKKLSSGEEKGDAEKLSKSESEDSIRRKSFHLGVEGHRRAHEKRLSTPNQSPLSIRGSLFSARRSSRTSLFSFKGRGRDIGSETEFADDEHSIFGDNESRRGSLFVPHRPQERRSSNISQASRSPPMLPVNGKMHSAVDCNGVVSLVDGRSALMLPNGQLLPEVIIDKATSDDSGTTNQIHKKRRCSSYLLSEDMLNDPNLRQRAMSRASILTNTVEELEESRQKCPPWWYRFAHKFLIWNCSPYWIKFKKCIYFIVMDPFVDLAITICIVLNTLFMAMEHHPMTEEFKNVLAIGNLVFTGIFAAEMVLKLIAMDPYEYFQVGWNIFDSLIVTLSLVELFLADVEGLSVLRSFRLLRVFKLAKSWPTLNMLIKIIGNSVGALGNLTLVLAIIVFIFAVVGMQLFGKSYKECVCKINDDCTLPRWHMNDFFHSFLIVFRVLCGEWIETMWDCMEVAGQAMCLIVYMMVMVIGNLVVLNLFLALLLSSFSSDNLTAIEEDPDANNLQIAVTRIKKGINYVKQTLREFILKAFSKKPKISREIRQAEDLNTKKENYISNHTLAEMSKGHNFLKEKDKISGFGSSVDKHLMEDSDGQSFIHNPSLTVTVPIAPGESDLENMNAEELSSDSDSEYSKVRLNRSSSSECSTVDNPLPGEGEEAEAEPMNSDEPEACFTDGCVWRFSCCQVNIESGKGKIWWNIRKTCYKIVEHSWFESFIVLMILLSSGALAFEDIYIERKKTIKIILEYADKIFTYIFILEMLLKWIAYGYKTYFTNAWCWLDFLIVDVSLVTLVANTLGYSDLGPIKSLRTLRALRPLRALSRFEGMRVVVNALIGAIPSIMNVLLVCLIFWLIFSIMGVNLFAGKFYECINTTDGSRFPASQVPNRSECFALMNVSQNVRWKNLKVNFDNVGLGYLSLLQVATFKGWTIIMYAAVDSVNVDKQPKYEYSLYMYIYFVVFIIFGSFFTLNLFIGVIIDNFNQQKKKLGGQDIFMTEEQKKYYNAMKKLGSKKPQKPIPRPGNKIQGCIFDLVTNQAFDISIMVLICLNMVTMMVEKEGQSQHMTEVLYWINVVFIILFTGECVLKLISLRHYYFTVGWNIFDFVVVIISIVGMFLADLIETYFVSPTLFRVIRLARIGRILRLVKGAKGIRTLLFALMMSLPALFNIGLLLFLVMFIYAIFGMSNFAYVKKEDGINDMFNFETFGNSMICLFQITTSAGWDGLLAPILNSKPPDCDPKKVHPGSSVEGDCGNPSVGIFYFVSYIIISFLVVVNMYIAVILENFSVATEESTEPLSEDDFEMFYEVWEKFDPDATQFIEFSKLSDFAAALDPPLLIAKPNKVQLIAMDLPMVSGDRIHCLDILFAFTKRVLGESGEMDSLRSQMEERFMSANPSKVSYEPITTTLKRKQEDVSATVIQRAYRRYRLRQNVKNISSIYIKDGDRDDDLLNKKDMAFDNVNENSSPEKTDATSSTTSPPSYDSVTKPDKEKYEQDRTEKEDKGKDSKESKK
measurement-description: Blocking effect against sodium ion channel (Nav1.7), IonFlux16 auto patch clamp, hNav1.7 HEK293 cells
measurement-parameters: peak current after 50 seconds treatment, eight concentrations
reported-metric: IC50

Some solved cases for reference:
- compound: "N#Cc1cc(S(=O)(=O)Nc2nccs2)ccc1Oc1cnc(-c2ccccc2)cc1-c1cncnc1"
  IC50: "> 100 nM"
- compound: "Cn1nccc1-c1nc(-c2cccnc2F)ccc1Oc1ccc(S(=O)(=O)Nc2nccs2)cc1C#N"
  IC50: "> 100 nM"
- compound: "Cn1nccc1-c1nc(-c2cccc(F)c2)ccc1Oc1ccc(S(=O)(=O)Nc2nccs2)cc1C#N"
  IC50: "51 to 100 nM"
- compound: "O=S(=O)(Nc1cscn1)c1cc(Cl)c(Oc2cnc(-c3ccc(F)c(F)c3)cc2-c2cn[nH]c2)cc1F"
  IC50: "> 100 nM"
- compound: "O=S(=O)(Nc1nccs1)c1ccc(C(O)c2ccc(Cl)cc2-c2ccoc2)c(F)c1 (centres unmarked)"
  IC50: "> 100 nM"

Parameter requested: IC50. Apply to each item below.
1. N#Cc1cc(S(=O)(=O)Nc2nccs2)ccc1Oc1cnc(-c2ccncc2)cc1-c1ccoc1
2. Cn1nccc1-c1cc(-c2cccc(F)c2)ncc1Oc1ccc(S(=O)(=O)Nc2nccs2)cc1C#N

1. > 100 nM
2. 51 to 100 nM

Quick one: IC50 for `O=S(=O)(Nc1cscn1)c1cc(F)c(Oc2cnc(-c3ccc(F)c(F)c3)cc2-c2cncnc2)cc1F` ?
> 100 nM

Data provenance: patent US9376429B2
